Test system: HCT-8
assay_method_text: Effective dose against 50% reduction in Human ileocecal carcinoma (HCT-8) cell number after 3-day incubation.
Type: functional, cell-based
Calls of active or inactive are those of the source. The rule behind the calls is not given here.

>  <compound_smiles>
O=c1cc(-c2ccccc2)sc2ccccc12

>  <ED50>
inactive

$$$$
>  <compound_smiles>
COc1ccc2sc(-c3ccccc3)cc(=O)c2c1

>  <ED50>
inactive

$$$$
>  <compound_smiles>
O=c1cc(-c2ccccc2)sc2cccc(O)c12

>  <ED50>
inactive

$$$$
>  <compound_smiles>
COc1cccc2sc(-c3ccccc3)cc(=O)c12

>  <ED50>
inactive

$$$$
>  <compound_smiles>
O=c1cc(-c2ccccc2)sc2cc(O)ccc12

>  <ED50>
inactive

$$$$
>  <compound_smiles>
Nc1cccc2c(=O)cc(-c3ccccc3)sc12

>  <ED50>
inactive

$$$$
>  <compound_smiles>
Nc1cccc2sc(-c3ccccc3)cc(=O)c12

>  <ED50>
inactive

$$$$
>  <compound_smiles>
CC(=O)Oc1cc2sc(-c3ccccc3)cc(=O)c2cc1OC(C)=O

>  <ED50>
inactive

$$$$
>  <compound_smiles>
CC(=O)Oc1ccc2c(=O)cc(-c3ccccc3)sc2c1

>  <ED50>
inactive

$$$$
>  <compound_smiles>
O=c1cc(-c2ccccc2)sc2ccc(O)cc12

>  <ED50>
inactive

$$$$
